Origin of values: patent US8962658B2

Catalogue of microsomal CLint readings, one per entry.
assay: in vitro; conditions: CD-1, mouse, microsomes, pH 7.4
Assay Metric: microsomal CLint

- Molecule: "COc1ccc2nc(-c3noc(C4CCN(C(=O)CCC(F)(F)F)CC4)n3)sc2c1"
  Measured Result: "197 µL/min/mg"
- Molecule: "O=C(CCC(F)(F)F)N1CCC(c2nc(-c3nccs3)no2)CC1"
  Measured Result: "37 µL/min/mg"
- Molecule: "O=C(CCC(F)(F)F)N1CCC(c2nc(-c3cccs3)no2)CC1 [Compound 3, reference compound]"
  Measured Result: "213 µL/min/mg"
- Molecule: "O=C(CCCC(F)(F)F)N1CCC(c2nc(-c3nccs3)no2)CC1"
  Measured Result: "15 µL/min/mg"
- Molecule: "O=C(CCC(F)(F)F)N1CC[C@@H](c2nc(-c3cccs3)no2)C1"
  Measured Result: "4 µL/min/mg"
